target: Solute carrier family 2, facilitated glucose transporter member 1 (Homo sapiens); test: ST_JUDE_LEISH: Cytotoxicity at 2uM final concentration against transgenic Leishmania Mexicana promastigotes LmGLUT1 that are glucose transport deficient and complemented with the human glucose transporter GLUT1. Activity is measured by DNA content using SYBR green in vitro; type: functional
measurementType: inhibition (%)
Give bare numbers, in %.

1. CCn1c(-c2nonc2N)nc2c(-c3cccc(NC(=O)Nc4ccc(C#N)cc4)c3)ncc(OCCCN)c21 : 1.92
2. CCc1ccc(-c2nc3cc(NC(=O)c4cc([N+](=O)[O-])cc([N+](=O)[O-])c4)ccc3o2)cc1 : 2.33
3. CCOC(=O)c1ccc(NC(=O)Nc2cccc(-c3cccc(-c4nc5cc(F)ccc5[nH]4)c3)c2)cc1 : 0.68
4. CCN1CCN(c2cc(C)c3cc(NC(=O)c4cc(OC)cc(OC)c4)ccc3n2)CC1 : -0.26
5. CC(C)=CCN1CCC(C(=O)Nc2ccc(-c3nc4ccccc4[nH]3)cc2)CC1 : 5.64

// for each compound below, give its inhibition
1. Ic1cc(CNC2CCCCC2)ccc1OCc1cccc(COc2ccc(CNC3CCCCC3)cc2I)c1
2. COC(=O)c1cccc(CNCc2cccc(-c3ccc(-c4nc5cc(C(F)(F)F)ccc5[nH]4)cc3)c2)c1
3. CN(C(=O)Cc1ccc(Cl)cc1)C1CCN(CCCCCNC(=O)/C=C/c2ccc(Cl)c(Cl)c2)CC1

A)
[4.09, 2.29, 2.86]

Looking up `N=C(N)NN=Cc1cc([N+](=O)[O-])ccc1Sc1ccccc1CO` , I see its inhibition listed as 1.08
